target: EGFR L858R/C797S (Homo sapiens, UniProt P00533, C797S/L858R); experiment: Biochemical EGFR kinase assay (Lance Ultra TR-FRET), L858R/C797S; conditions: Km ATP; read-out: IC50 L858R/C797S (nM) Km ATP
Sequence (P00533 25-1210 C797S/L858R): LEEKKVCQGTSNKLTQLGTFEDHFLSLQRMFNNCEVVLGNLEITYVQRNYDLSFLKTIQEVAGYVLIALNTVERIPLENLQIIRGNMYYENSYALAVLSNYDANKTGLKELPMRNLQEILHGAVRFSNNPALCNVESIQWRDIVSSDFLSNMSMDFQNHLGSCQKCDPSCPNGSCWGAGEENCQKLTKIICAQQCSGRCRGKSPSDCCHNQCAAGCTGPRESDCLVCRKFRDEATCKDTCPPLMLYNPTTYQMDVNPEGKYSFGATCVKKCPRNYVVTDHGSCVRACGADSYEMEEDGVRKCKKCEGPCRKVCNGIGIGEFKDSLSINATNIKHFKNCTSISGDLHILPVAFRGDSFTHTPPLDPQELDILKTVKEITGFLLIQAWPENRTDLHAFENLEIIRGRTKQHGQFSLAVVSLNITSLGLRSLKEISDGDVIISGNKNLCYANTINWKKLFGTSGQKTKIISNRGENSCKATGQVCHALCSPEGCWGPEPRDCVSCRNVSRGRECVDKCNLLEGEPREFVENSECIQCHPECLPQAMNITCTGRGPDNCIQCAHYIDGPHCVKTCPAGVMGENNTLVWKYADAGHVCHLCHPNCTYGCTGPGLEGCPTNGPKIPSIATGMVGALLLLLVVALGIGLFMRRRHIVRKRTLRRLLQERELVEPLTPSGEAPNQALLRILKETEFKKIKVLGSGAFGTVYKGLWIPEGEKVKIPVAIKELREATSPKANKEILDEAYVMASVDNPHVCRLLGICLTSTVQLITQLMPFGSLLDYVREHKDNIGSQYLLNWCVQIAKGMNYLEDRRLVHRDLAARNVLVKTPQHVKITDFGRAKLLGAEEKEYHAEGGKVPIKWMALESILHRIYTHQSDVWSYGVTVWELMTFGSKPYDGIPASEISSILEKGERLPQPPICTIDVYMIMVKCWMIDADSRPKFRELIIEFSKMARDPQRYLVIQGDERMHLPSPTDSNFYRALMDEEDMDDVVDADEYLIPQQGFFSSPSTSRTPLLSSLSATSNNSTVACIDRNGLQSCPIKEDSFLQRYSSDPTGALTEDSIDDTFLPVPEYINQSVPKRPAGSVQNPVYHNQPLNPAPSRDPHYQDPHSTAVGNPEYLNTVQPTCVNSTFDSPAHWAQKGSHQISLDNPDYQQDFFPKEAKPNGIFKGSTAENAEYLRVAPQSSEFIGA
measurementKind: IC50 (nM)
Give your result in nM as a bare value.

Sample records with IC50:
> print(dat)
                                   compound  measurementkind  testresult
1  CC(=O)c1cnc(Nc2ccnc(-c3cnn(S(=O)(=O)C4CC4)c3)n2)cc1NC1CCC(CO)C1 (centres unmarked)             IC50        51.3
2  CC(C)Nc1cc(Nc2ccnc(-c3cnn(S(=O)(=O)C4CC4)c3)n2)ncc1C(=O)C1CC1             IC50        84.3
3  CC(C)(O)[C@H]1CC[C@@H](Nc2cc(Nc3ccnc(-c4cnn(S(=O)(=O)C5CC5)c4)n3)ncc2C(=O)C(F)F)CC1             IC50        42.8
4  CNC[C@H]1CC[C@H](CNc2cc(Nc3ccnc(-c4cnn(S(=O)(=O)C5CC5)c4)n3)ncc2C(=O)C2CC2)CC1             IC50         0.7
5  O=C(c1cnc(Nc2ccnc(-c3cnn(S(=O)(=O)C4CC4)c3)n2)cc1N[C@H]1CC[C@@H](NCCF)CC1)C(F)F             IC50        47.1
6  CC(C)NC[C@H]1CC[C@H](CNc2cc(Nc3ccnc(-c4cnn(S(=O)(=O)C5CC5)c4)n3)ncc2C(=O)C2CC2)CC1             IC50         9.2

Item: CN(C)Cc1ccc(CNc2cc(Nc3ccnc(-c4cnn(S(=O)(=O)C5CC5)c4)n3)ncc2C(=O)C2CC2)s1 | IC50: 59.2

Item: C[C@]1(O)CC[C@@H](Nc2cc(Nc3ccnc(-c4cnn(S(=O)(=O)C5CC5)c4)n3)ncc2C(=O)C2CC2)CC1 | IC50: 0.9

Item: CN(C)C[C@H]1CC[C@H](CNc2cc(Nc3ccnc(-c4cnn(C5CC5)c4)n3)ncc2C(=O)C2CC2)CC1 | IC50: 115

Item: C[C@@H](CCO)Nc1cc(Nc2ccnc(-c3cnn(S(=O)(=O)C4CC4)c3)n2)ncc1C(=O)C1CC1 | IC50: 292

Item: C[C@]1(O)CC[C@@H](Nc2cc(Nc3ccnc(-c4cnn(S(=O)(=O)C5CC5)c4)n3)ncc2C(=O)CC2CCOCC2)CC1 | IC50: 5.1

Item: CC(=O)NC[C@H]1CC[C@H](CNc2cc(Nc3ccnc(-c4cnn(S(=O)(=O)C5CC5)c4)n3)ncc2C(=O)C2CC2)CC1 | IC50: 11.8

Item: O=C(c1cnc(Nc2ccnc(-c3cnn(S(=O)(=O)C4CC4)c3)n2)cc1NCCCO)C1CC1 | IC50: 479

Item: CN(C)CCN1CCC(Nc2cc(Nc3ccnc(-c4cnn(S(=O)(=O)C5CC5)c4)n3)ncc2C(=O)C2CC2)CC1 | IC50: 9.7

* * *

IC50: recorded values
biological target: EGFR L858R/T790M/C797S (Homo sapiens, UniProt P00533, C797S/L858R/T790M); test: Biochemical EGFR kinase assay (Lance Ultra TR-FRET), L858R/T790M/C797S; details: Km ATP; read-out: IC50 L858R/T790M/C797S (nM) Km ATP
Sequence (P00533 25-1210 T790M/C797S/L858R): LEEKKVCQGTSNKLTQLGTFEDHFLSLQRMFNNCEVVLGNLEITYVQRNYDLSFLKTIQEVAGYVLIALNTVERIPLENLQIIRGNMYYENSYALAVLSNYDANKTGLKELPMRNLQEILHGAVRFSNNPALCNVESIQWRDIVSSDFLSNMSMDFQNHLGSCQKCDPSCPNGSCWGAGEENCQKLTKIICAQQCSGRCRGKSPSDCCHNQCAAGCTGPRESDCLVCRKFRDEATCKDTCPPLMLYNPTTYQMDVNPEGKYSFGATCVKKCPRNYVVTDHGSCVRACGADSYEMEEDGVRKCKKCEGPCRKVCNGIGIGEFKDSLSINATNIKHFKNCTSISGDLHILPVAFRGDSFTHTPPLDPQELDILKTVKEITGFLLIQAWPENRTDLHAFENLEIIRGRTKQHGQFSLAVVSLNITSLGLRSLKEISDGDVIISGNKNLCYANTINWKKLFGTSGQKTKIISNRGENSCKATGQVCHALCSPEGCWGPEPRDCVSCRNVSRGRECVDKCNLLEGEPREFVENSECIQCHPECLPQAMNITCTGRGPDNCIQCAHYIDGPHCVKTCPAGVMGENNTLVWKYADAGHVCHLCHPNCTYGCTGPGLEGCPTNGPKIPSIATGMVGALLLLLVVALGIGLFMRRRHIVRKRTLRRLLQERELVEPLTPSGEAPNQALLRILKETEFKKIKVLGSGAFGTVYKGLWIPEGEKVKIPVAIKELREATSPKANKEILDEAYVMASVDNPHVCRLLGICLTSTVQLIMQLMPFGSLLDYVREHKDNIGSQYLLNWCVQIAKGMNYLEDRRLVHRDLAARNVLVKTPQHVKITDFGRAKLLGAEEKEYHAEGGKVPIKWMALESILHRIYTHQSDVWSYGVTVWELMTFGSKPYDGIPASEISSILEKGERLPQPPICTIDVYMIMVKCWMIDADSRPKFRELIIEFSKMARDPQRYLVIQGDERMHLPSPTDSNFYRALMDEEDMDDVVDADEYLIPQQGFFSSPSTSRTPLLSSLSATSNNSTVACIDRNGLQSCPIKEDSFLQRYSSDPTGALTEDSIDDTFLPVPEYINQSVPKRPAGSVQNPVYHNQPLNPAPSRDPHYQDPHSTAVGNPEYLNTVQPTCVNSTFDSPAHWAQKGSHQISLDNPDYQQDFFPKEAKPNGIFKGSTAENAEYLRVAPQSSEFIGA
Give your result in nM as a bare value.

> print(dat)
                            structuresmiles  measurementkind  testresult
1  C[C@]1(O)CC[C@@H](Nc2cc(Nc3ccnc(-c4cnn(S(=O)(=O)C5CC5)c4)n3)ncc2C(=O)CC2CCOCC2)CC1             IC50         0.2
2  CCCNc1cc(Nc2ccnc(-c3cnn(S(=O)(=O)C4CC4)c3)n2)ncc1C(C)=O             IC50         3.1
3  O=C(c1cnc(Nc2ccnc(-c3cnn(S(=O)(=O)C4CC4)c3)n2)cc1NCCCC(F)F)C1CC1             IC50          18

Lab note: next molecule to report on.
Item: O=C(c1cnc(Nc2ccnc(-c3cnn(S(=O)(=O)C4CC4)c3)n2)cc1NCc1cnn(CCF)c1)C1CC1 | IC50: 15.5

* * *

biological target: EGFR wildtype (WT) (Homo sapiens); experiment: Biochemical EGFR kinase assay (Lance Ultra TR-FRET), wildtype; details: Km ATP; read-out: IC50 WT (nM) Km ATP
Sequence (P00533 25-1210): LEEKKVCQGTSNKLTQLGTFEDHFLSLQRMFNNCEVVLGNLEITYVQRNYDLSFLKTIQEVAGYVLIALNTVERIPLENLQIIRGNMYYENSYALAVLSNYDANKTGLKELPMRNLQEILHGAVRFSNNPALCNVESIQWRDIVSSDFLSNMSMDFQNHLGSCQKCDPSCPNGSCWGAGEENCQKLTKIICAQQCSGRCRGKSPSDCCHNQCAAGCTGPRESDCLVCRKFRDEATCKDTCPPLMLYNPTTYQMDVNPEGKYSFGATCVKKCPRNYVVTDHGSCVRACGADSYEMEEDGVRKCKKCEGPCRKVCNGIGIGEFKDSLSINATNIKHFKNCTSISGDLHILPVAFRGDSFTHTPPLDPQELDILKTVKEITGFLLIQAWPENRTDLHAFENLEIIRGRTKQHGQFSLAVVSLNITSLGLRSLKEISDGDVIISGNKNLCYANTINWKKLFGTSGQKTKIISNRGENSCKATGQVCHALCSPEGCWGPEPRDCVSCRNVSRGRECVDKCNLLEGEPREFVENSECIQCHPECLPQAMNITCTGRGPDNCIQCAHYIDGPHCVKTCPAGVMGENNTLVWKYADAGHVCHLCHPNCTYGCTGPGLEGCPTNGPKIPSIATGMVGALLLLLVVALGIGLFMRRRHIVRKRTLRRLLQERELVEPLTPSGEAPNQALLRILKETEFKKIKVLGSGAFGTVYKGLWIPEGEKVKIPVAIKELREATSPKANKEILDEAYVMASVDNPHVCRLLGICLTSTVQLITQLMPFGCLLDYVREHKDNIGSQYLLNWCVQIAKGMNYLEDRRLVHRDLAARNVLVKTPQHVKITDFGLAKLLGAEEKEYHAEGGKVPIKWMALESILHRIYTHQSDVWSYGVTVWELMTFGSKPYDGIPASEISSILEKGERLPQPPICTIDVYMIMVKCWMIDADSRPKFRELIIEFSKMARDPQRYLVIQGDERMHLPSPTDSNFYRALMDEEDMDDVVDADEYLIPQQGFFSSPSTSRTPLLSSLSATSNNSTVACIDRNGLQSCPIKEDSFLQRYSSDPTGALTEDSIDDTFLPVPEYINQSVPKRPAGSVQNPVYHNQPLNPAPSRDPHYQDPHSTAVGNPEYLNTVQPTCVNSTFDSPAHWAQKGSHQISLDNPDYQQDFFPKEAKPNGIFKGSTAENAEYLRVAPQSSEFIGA
measurementKind: log10 of IC50 (log10 of the value in nM)
Values are log10 of IC50 in nM.

Sample records with log10 of IC50:
> print(dat)
                                   molecule  measurementkind  testresult
1  CN(C)CCN1CCC(Nc2cc(Nc3ccnc(-c4cnn(S(=O)(=O)C5CC5)c4)n3)ncc2C(=O)C2CC2)CC1 [Example 37]    log10 of IC50        2.05
2  CCCNc1cc(Nc2ccnc(-c3cnn(S(=O)(=O)C4CC4)c3)n2)ncc1C(C)=O [Example 45]    log10 of IC50        2.88

Lab note: next molecule to report on.
Item: C[C@]1(O)CC[C@@H](Nc2cc(Nc3ccnc(-c4cnn(S(=O)(=O)C5CC5)c4)n3)ncc2C(=O)C2CC2)CC1 [Example 33] | log10 of IC50: 1.14

* * *

log10 IC50: recorded values
Molecular target: EGFR L858R/C797S (Homo sapiens, UniProt P00533, C797S/L858R)
Experiment: Biochemical EGFR kinase assay (Lance Ultra TR-FRET), L858R/C797S
Conditions: Km ATP; read-out: IC50 L858R/C797S (nM) Km ATP
Method: Biochemical EGFR kinase assays were conducted using Lance Ultra time-resolved fluorescence resonance energy transfer (TR-FRET) technology from Perkin-Elmer. […] Each kinase reactions were incubated at room temperature for 1 hour and then stopped by the addition of 4 μL of stop solution (10 mM EDTA). […] After 60 minutes incubation at room temperature the LANCE signal was measured on an EnVision Multilabel Reader (Perkin-Elmer). […]
Values are log10 of IC50 in nM.

Sample records with log10 IC50:
> print(dat)
                                   molecule  measurementkind  testresult
1  NC[C@H]1CC[C@H](CNc2cc(Nc3ccnc(-c4cnn(S(=O)(=O)C5CC5)c4)n3)ncc2C(=O)C2CC2)CC1       log10 IC50        0.61
2  C[C@]1(O)CC[C@@H](Nc2cc(Nc3ccnc(-c4cnn(S(=O)(=O)C5CC5)c4)n3)ncc2C(=O)NCCF)CC1       log10 IC50        0.43
3  O=C(c1cnc(Nc2ccnc(-c3cnn(S(=O)(=O)C4CC4)c3)n2)cc1N[C@H]1CC[C@](O)(CO)CC1)C1CC1       log10 IC50        0.63
4  O=C(NCCF)c1cnc(Nc2ccnc(-c3cnn(S(=O)(=O)C4CC4)c3)n2)cc1N[C@H]1CC[C@@H](NCCF)CC1       log10 IC50        0.95
5  O=C(c1cnc(Nc2ccnc(-c3cnn(S(=O)(=O)C4CC4)c3)n2)cc1NC1CCC(CO)C1)C1CC1 (stereo not drawn)       log10 IC50        1.79

Lab note: next molecule to report on.
Item: CN[C@H]1CC[C@H](CNc2cc(Nc3ccnc(-c4cnn(S(=O)(=O)C5CC5)c4)n3)ncc2C(=O)C2CC2)CC1 | log10 IC50: 0.41

* * *

IC50: recorded values
target: EGFR del19/C797S (Homo sapiens, UniProt P00533, C797S/DEL746-750); test: Biochemical EGFR kinase assay (Lance Ultra TR-FRET), del19/C797S; conditions: Km ATP; read-out: IC50 del19/C797S (nM) Km ATP
Sequence (P00533 with tags, fused parts or gaps DEL746-750/C797S): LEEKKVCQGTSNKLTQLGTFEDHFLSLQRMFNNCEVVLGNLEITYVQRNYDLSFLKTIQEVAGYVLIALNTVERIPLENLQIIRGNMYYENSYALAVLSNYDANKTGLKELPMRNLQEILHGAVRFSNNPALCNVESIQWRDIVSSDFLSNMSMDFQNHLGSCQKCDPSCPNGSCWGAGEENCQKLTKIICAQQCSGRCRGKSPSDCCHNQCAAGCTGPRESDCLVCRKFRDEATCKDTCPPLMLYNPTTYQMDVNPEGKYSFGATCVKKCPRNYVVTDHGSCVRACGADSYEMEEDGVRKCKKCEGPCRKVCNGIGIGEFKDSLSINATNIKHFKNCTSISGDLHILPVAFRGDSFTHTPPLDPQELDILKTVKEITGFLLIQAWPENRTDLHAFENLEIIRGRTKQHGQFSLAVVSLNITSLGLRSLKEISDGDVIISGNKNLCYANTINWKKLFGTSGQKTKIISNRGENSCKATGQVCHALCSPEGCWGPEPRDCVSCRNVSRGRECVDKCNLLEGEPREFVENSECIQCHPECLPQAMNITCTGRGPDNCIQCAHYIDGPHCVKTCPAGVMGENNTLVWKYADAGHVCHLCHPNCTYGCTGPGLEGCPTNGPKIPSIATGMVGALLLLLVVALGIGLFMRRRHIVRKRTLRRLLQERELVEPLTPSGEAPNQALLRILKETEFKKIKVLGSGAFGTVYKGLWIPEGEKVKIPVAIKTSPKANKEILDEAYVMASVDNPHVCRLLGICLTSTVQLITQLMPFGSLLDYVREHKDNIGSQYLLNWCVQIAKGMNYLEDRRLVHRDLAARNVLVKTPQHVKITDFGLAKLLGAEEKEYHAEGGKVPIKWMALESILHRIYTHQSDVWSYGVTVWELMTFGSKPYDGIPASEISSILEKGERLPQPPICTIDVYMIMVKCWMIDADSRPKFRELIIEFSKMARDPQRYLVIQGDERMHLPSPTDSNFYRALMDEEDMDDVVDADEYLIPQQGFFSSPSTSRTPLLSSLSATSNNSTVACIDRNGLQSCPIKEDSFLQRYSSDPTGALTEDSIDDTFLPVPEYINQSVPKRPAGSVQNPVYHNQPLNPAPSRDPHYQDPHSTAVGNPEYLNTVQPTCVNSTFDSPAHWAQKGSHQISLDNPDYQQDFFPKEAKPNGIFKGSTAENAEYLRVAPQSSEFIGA
Give your result in nM as a bare value.

Sample records with IC50:
> print(dat)
                                   molecule  measurementkind  measureunit  testresult
1  O=C(c1cnc(Nc2ccnc(-c3cnn(S(=O)(=O)C4CC4)c3)n2)cc1NC1CCC(CO)C1)C1CC1 (stereo not drawn) [Example 13]             IC50           nM         4.5
2  C[C@H](CCO)Nc1cc(Nc2ccnc(-c3cnn(S(=O)(=O)C4CC4)c3)n2)ncc1C(=O)C1CC1 [Example 7]             IC50           nM        49.2

Lab note: next molecule to report on.
Item: O=C(c1cnc(Nc2ccnc(-c3cnn(S(=O)(=O)C4CC4)c3)n2)cc1N[C@H]1CC[C@@H](CO)CC1)C(F)F [Example 49] | IC50: 2.6

* * *

molecular target: EGFR del19/C797S (Homo sapiens, UniProt P00533, C797S/DEL746-750); test: Biochemical EGFR kinase assay (Lance Ultra TR-FRET), del19/C797S; settings: IC50 del19/C797S (nM) 100 μM ATP, 100 μM ATP
log10 of IC50: recorded values
Values are log10 of IC50 in nM.

Item: CC(C)(CO)CNc1cc(Nc2ccnc(-c3cnn(S(=O)(=O)C4CC4)c3)n2)ncc1C(=O)C1CC1 [Example 28] | log10 of IC50: 2.25

These entries and their values trace back to patent US11945798B2.
